Experiment: Tmax in male ICR mouse at 5 mg/kg, ip
Assay type: ADME, organism-based
Design: dose 5 mg/kg, route intraperitoneal
Conditions: in vivo
EXPERIMENTAL_READOUT: Tmax (min)
Report as a plain number; the unit min is understood.

Prompt line: Check the records and state Tmax for CS(=O)(=O)c1ccc(-c2nnc(/C=C/c3nnc(-c4ccc(C#N)cc4)o3)n2-c2ccccc2Cl)nc1
Response line: 30

* * *

Experiment: AUC (0 to infinity) in male ICR mouse at 5 mg/kg, po
Type: ADME, organism-based
Set-up: time infinity, dose 5 mg/kg, route oral
Settings: plasma
EXPERIMENTAL_READOUT: AUC(0-inf) (ng·h/mL)
Report as a plain number; the unit ng·h/mL is understood.

Prompt line: Check the records and state AUC(0-inf) for CS(=O)(=O)c1ccc(-c2nnc(/C=C/c3nnc(-c4ccc(C#N)cc4)o3)n2-c2ccccc2Cl)nc1
Response line: 8270

* * *

Assay: AUC (0 to infinity) in female ICR mouse at 5 mg/kg, po
Type: ADME, organism-based
Set-up: time infinity, dose 5 mg/kg, route oral
Conditions: plasma
EXPERIMENTAL_READOUT: AUC(0-inf) (ng·h/mL)
Report as a plain number; the unit ng·h/mL is understood.

Prompt line: Check the records and state AUC(0-inf) for CS(=O)(=O)c1ccc(-c2nnc(/C=C/c3nnc(-c4ccc(C#N)cc4)o3)n2-c2ccccc2Cl)nc1
Response line: 6750

* * *

Kindly state half-life for each of the entries shown.
Experiment: Half life in human liver microsomes
Assay type: ADME, Microsome
# answer = value followed by unit

Prompt line: Check the records and state half-life for COc1cc(-c2nnc(/C=C/c3nnc(-c4ccc(S(C)(=O)=O)cn4)n3-c3ccccc3Cl)o2)ccn1
Response line: 37 min

Prompt line: Check the records and state half-life for Cc1ccc(-c2nnc(CCc3nnc(-c4ccncc4)n3-c3ccccc3Cl)o2)cc1
Response line: 7 min

Prompt line: Check the records and state half-life for CS(=O)(=O)c1ccc(-c2nnc(SCc3nnc(-c4ccc(Cl)cc4)o3)n2-c2ccccc2Cl)nc1
Response line: 4 min

* * *

Test: Bioavailability in female ICR mouse measured from AUC (0 to infinity) at 5 mg/kg, ip
Format: ADME, organism-based
Conditions: in vivo
EXPERIMENTAL_READOUT: bioavailability (%)
Report as a plain number; the unit % is understood.

Prompt line: Check the records and state bioavailability for CS(=O)(=O)c1ccc(-c2nnc(/C=C/c3nnc(-c4ccc(C#N)cc4)o3)n2-c2ccccc2Cl)nc1
Response line: 122

* * *

Assay: Half life in female ICR mouse at 5 mg/kg, po
Format: ADME, organism-based
Set-up: dose 5 mg/kg, route oral
Settings: in vivo
EXPERIMENTAL_READOUT: half-life (h)
Report as a plain number; the unit h is understood.

Prompt line: Check the records and state half-life for CS(=O)(=O)c1ccc(-c2nnc(/C=C/c3nnc(-c4ccc(C#N)cc4)o3)n2-c2ccccc2Cl)nc1
Response line: 2.63

* * *

Test: AUC (0 to infinity) in male ICR mouse at 1 mg/kg, iv
Type: ADME, organism-based
Set-up: time infinity, dose 1 mg/kg, route intravenous
Settings: plasma
EXPERIMENTAL_READOUT: AUC(0-inf)
# answer = value followed by unit

Prompt line: Check the records and state AUC(0-inf) for CS(=O)(=O)c1ccc(-c2nnc(/C=C/c3nnc(-c4ccc(C#N)cc4)o3)n2-c2ccccc2Cl)nc1
Response line: 1680 ng·h/mL
